- Target Of Assay: NHE3 (Homo sapiens)
- Sequence (P48764 26-834): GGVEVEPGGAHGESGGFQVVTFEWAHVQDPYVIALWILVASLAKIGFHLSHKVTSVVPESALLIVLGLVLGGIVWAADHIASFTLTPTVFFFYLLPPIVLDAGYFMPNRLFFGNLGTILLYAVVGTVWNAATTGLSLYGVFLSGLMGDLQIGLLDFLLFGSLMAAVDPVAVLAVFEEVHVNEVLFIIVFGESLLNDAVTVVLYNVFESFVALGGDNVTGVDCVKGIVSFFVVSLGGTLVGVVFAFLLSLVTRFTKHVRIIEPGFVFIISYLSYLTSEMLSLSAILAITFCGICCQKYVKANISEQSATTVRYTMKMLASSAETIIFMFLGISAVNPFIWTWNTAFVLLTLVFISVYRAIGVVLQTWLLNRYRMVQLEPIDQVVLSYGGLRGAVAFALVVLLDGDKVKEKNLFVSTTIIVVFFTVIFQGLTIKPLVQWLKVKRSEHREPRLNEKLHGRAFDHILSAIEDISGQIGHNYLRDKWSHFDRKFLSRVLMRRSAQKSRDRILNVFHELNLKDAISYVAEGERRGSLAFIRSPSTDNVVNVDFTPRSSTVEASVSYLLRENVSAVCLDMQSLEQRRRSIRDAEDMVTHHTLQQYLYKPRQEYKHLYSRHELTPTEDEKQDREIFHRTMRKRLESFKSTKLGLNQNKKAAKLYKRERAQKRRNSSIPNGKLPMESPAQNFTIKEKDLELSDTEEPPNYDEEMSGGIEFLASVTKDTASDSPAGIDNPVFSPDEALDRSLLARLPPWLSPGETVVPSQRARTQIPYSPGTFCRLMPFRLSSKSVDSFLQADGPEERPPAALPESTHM
- Assay Procedure: Determination of the NHE inhibition: recovery of intracellular pH after acidification (BCECF fluorescence), NHE3
- Recorded Conditions: pH recovery registered at three minutes
Structures can show the parent of a compound that is named as a salt.
Would you kindly list IC50 for each of these molecules?
Report only the number, with the unit µM understood.

The measured IC50 associated with Clc1cccc(Cl)c1Nc1nc2cscc2[nH]1 [Example 2, hydrochloride] reads 0.22

Data point: Clc1csc(Cl)c1Nc1nc2cscc2[nH]1 [Example 10, hydrochloride] ; IC50 = 0.32

Record Cc1cccc(Cl)c1Nc1nc2cscc2[nH]1 [Example 9, hydrochloride] . Reported IC50: 1.43

Entry under test: Cc1csc(Cl)c1Nc1nc2cscc2[nH]1 [Example 5, hydrochloride] . Its IC50 was 0.15

Notebook: FC(F)(F)c1ccccc1Nc1nc2cscc2[nH]1 [Example 6, hydrochloride] , IC50 read as 6.51
